Cited source: the supplement of paper PMC9112550

- Test system: Escherichia coli TOP10;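 also: peptides expressed intracellularly from a pBAD plasmid library in pooled LB shake-flask culture, induced with 0.3% L-arabinose, DNA abundance read by NGS, three biological replicates, DESeq2 with apeglm shrinkage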
- test method notes: shrunken log2 fold change of peptide-encoding DNA abundance (4.5 h post-induction vs induction); higher = less antimicrobial activity (less host growth inhibition)
- settings: time post-induction: 4.5 h; library: site-saturation at positions 5, 18, 19, 20

{"item sequence": "RRIRARPPRLPRPRPRPTPAPRP", "shrunken log2 fold change": 1.05}
{"item sequence": "RRIRYRPPRLPRPRPRPTKDPRP", "shrunken log2 fold change": -1.04}
{"item sequence": "RRIRVRPPRLPRPRPRPKRYPRP", "shrunken log2 fold change": -0.078}
{"item sequence": "RRIRFRPPRLPRPRPRPMKCPRP", "shrunken log2 fold change": -0.695}
{"item sequence": "RRIRRRPPRLPRPRPRPTRRPRP", "shrunken log2 fold change": 0.853}
{"item sequence": "RRIRARPPRLPRPRPRPFFAPRP", "shrunken log2 fold change": 0.67}
{"item sequence": "RRIRGRPPRLPRPRPRPEYEPRP", "shrunken log2 fold change": 0.165}
{"item sequence": "RRIRPRPPRLPRPRPRPAFTPRP", "shrunken log2 fold change": -0.0147}
